Cited source for all entries: paper PMC7649969

Entries and their pKa values follow.
assayNotes: acid-base titration with NaOH
Type: physicochemical
protocolConditions: Milli-Q water with 10% DMSO, ~2 mM compound, read-out: pKa1
Procedure: Fig. 6 (a) Acid–base titration of 3, 5, 13 and neutral and basic forms of 3, 5, 13. (20 μmol of compound in 10 mL (10% DMSO, ∼2 mM), 3 and 5 were acidified with HCl (50 μmol)). (b) Acid-base equilibria for inhibitors 3, 5 and 13 highlighting potentially metal chelating nitrogen atoms in red. […] (Metrohm, Zofingen, Switzerland) and pH was measured using a 692 pH/ion meter (Metrohm).
Enter the number alone.

{"columns": ["compound", "numericResult"],
 "data": [
  ["Cc1nn(-c2ccccn2)c(O)c1C(=O)Nc1cccc(C(F)(F)F)c1 [Compound 3, reference compound]", 3.3],
  ["Cc1cc(O)nc(-n2nc(C)cc2C)n1", 3.6]
]}

Below: the item to evaluate.
stdin: Return value of pKa for input "Cc1cc(=O)[nH]c(-n2nc3c(c2C)CCCC3)n1" , no commentary.
stdout: 3.3
